Data provenance: patent US20220242969A1

# assayed.system: T1, prostate specific antigen (PSA) (human, UniProt P07288 25-261, limits assumed)
# T1 construct: The antigen of the SPR study is only called 'PSA' (169 ug/ml, provided by Diaprost AB, Mw 30 000 Da); also called kallikrein III
# T1 sequence (P07288 25-261 limits assumed): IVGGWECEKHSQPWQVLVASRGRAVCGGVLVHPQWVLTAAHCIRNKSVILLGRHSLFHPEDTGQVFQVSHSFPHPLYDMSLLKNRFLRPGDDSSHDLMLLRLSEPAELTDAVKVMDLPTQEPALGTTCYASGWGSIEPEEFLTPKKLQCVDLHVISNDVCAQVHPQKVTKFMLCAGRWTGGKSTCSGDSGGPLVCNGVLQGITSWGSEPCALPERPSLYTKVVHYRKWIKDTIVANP
# assay.procedure: SPR (Biacore 3000), PSA amine-coupled on CM4 chip, antibody in solution
Listed below: koff values for each entry.
Your answer is read as s⁻¹, so omit the unit and give the number.

Examples from the recorded data:
h5A10-DTPA (antibody, human IgG1, kappa, V domains shown, DTPA chelator conjugated to the antibody; sites and chain not stated, Humanised 5A10 IgG1/kappa conjugated with the chelator DTPA; also called h5A10-DTPA (141203); DTPA-h5A10) VH: QVTLKESGPALVKPTQTLTLTCTFSGFSLSTTGMGVSWIRQPPGKALEWLAHIYWDDDKRYSTSLKTRLTISEDSSKNQVVLTMTNMDPVDTATYYCARKGYYGYFDYWGQGTLVTVSS VL: DIQMTQSPSSLSASVGDRVTVTCRASQNVNTDVAWYQQKPGKAPKALIFSTSYLQSGVPSRFSGSGSGTDFTLTISSLQPEDFATYYCQQYSNYPLTFGQGTKVEIKR = 4.8e-06
h5A10-DOTA (antibody, human IgG1, kappa, V domains shown, DOTA chelator conjugated to the antibody; sites and chain not stated, Humanised 5A10 IgG1/kappa conjugated with the chelator DOTA; also called h5A10-DOTA (141211)) VH: QVTLKESGPALVKPTQTLTLTCTFSGFSLSTTGMGVSWIRQPPGKALEWLAHIYWDDDKRYSTSLKTRLTISEDSSKNQVVLTMTNMDPVDTATYYCARKGYYGYFDYWGQGTLVTVSS VL: DIQMTQSPSSLSASVGDRVTVTCRASQNVNTDVAWYQQKPGKAPKALIFSTSYLQSGVPSRFSGSGSGTDFTLTISSLQPEDFATYYCQQYSNYPLTFGQGTKVEIKR = 1.17e-05
humanised monoclonal antibody 5A10 (h5A10) (antibody, human IgG1, kappa, V domains shown, also called hu5A10 (141203); h5A10 (141203)) VH: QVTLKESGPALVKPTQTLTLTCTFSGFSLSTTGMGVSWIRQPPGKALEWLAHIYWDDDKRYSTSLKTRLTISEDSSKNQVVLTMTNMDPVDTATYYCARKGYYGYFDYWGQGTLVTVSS VL: DIQMTQSPSSLSASVGDRVTVTCRASQNVNTDVAWYQQKPGKAPKALIFSTSYLQSGVPSRFSGSGSGTDFTLTISSLQPEDFATYYCQQYSNYPLTFGQGTKVEIKR = 4.8e-06

Challenge: Data request, read-out koff, for h5A10-DFO (antibody, human IgG1, kappa, V domains shown, DFO (deferoxamine) chelator conjugated to the antibody; sites and chain not stated, Humanised 5A10 IgG1/kappa conjugated with the chelator DFO; also called h5A10-DFO (141203)) VH: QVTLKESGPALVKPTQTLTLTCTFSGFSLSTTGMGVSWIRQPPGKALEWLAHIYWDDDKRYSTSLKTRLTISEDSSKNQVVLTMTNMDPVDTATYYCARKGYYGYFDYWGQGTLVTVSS VL: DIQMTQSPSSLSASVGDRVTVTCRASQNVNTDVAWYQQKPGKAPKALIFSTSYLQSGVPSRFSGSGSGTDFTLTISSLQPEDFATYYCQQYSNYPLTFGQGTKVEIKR
Response given: 8.3e-06
